Hi there, I'd appreciate the recorded inhibition of growth at 30 µM for every entry that follows.
Assay: Cytotoxicity against human LS180 cells assessed as cell growth inhibition at 30 uM after 48 hrs by MTT assay
Type: functional
Details: LS180, 48 h, read-out: GI
Answers are plain numbers, in %.

Please review the following examples before continuing.
{"columns": ["lineNotation", "outputUnit", "inhibition of growth at 30 µM"],
 "data": [
  ["C[C@H]1[C@@H](O)O[C@@H]2O[C@@]3(C)CC[C@H]4[C@H](C)CC[C@@H]1[C@@]24OO3", "%", 32],
  ["C[C@H]1[C@@H](OCCOc2cccc(C(=O)/C=C/c3cn(CCO[C@H]4O[C@@H]5O[C@@]6(C)CC[C@H]7[C@H](C)CC[C@@H]([C@H]4C)[C@@]57OO6)c4ccccc34)c2)O[C@@H]2O[C@@]3(C)CC[C@H]4[C@H](C)CC[C@@H]1[C@@]24OO3", "%", 36.2],
  ["C[C@H]1[C@@H](OCCOc2ccc(/C=C/C(=O)c3ccc(Cl)cc3)cc2)O[C@@H]2O[C@@]3(C)CC[C@H]4[C@H](C)CC[C@@H]1[C@@]24OO3", "%", 42.1],
  ["C[C@H]1[C@@H](OCCOc2ccc(/C=C/C(=O)c3ccc(Cl)s3)cc2)O[C@@H]2O[C@@]3(C)CC[C@H]4[C@H](C)CC[C@@H]1[C@@]24OO3", "%", 39.5],
  ["CCOc1cc(/C=C/C(=O)c2ccc(OCCO[C@H]3O[C@@H]4O[C@@]5(C)CC[C@H]6[C@H](C)CC[C@@H]([C@H]3C)[C@@]46OO5)cc2)ccc1O", "%", 27.4]
]}

// input: 5 molecules below; output: inhibition of growth at 30 µM for each
1. C[C@H]1[C@@H](OCCOc2cccc(C(=O)/C=C/c3ccc(O)cc3)c2)O[C@@H]2O[C@@]3(C)CC[C@H]4[C@H](C)CC[C@@H]1[C@@]24OO3
2. Cc1cc(C(=O)/C=C/c2ccc(OCCO[C@H]3O[C@@H]4O[C@@]5(C)CC[C@H]6[C@H](C)CC[C@@H]([C@H]3C)[C@@]46OO5)cc2)ccc1OCCO[C@H]1O[C@@H]2O[C@@]3(C)CC[C@H]4[C@H](C)CC[C@@H]([C@H]1C)[C@@]24OO3
3. COc1ccc(C(=O)/C=C/c2ccc(OCCO[C@H]3O[C@@H]4O[C@@]5(C)CC[C@H]6[C@H](C)CC[C@@H]([C@H]3C)[C@@]46OO5)cc2)cc1Cl
4. C[C@H]1[C@@H](OCCOc2ccc(/C=C/C(=O)c3cccc(O)c3)cc2)O[C@@H]2O[C@@]3(C)CC[C@H]4[C@H](C)CC[C@@H]1[C@@]24OO3
5. C[C@H]1[C@@H](OCCOc2ccc(-c3cc(=O)c4ccc(OCCO[C@H]5O[C@H]6O[C@@]7(C)CC[C@H]8[C@H](C)CC[C@@H]([C@H]5C)[C@@]68OO7)cc4o3)cc2)O[C@H]2O[C@@]3(C)CC[C@H]4[C@H](C)CC[C@@H]1[C@@]24OO3

Reply |
1. 25.2
2. 7.1
3. 41.6
4. 31.1
5. 30.5

Ask | // Input: C[C@H]1[C@@H](OCCOc2ccc(C(=O)/C=C/c3c[nH]c4ccccc34)cc2)O[C@@H]2O[C@@]3(C)CC[C@H]4[C@H](C)CC[C@@H]1[C@@]24OO3 . Output its inhibition of growth at 30 µM only.
Reply | 41.9

====

Experiment: Aqueous solubility of the compound at pH 7
Type: physicochemical
Answer each item with its documented solubility.

{"columns": ["lineNotation", "solubility"],
 "data": [
  ["C[C@H]1[C@@H](OCCOc2cccc(C(=O)/C=C/c3cn(CCO[C@H]4O[C@@H]5O[C@@]6(C)CC[C@H]7[C@H](C)CC[C@@H]([C@H]4C)[C@@]57OO6)c4ccccc34)c2)O[C@@H]2O[C@@]3(C)CC[C@H]4[C@H](C)CC[C@@H]1[C@@]24OO3", "< 10 µg/mL"],
  ["C[C@H]1[C@@H](OCCOc2ccc(/C=C/C(=O)c3ccc(O)cc3)cc2)O[C@@H]2O[C@@]3(C)CC[C@H]4[C@H](C)CC[C@@H]1[C@@]24OO3", "> 100 µg/mL"],
  ["C[C@H]1[C@@H](OCCOc2ccc(/C=C/C(=O)c3ccc(Cl)s3)cc2)O[C@@H]2O[C@@]3(C)CC[C@H]4[C@H](C)CC[C@@H]1[C@@]24OO3", "< 10 µg/mL"],
  ["CCOc1cc(/C=C/C(=O)c2ccc(OCCO[C@H]3O[C@@H]4O[C@@]5(C)CC[C@H]6[C@H](C)CC[C@@H]([C@H]3C)[C@@]46OO5)cc2)ccc1O", "< 10 µg/mL"]
]}

Let us examine a further case.
Ask | Output solubility of COc1ccc(/C=C/C(=O)c2ccc(OCCO[C@H]3O[C@@H]4O[C@@]5(C)CC[C@H]6[C@H](C)CC[C@@H]([C@H]3C)[C@@]46OO5)cc2)c(OC)c1OC
Reply | < 10 µg/mL

====

Field: inhibition of growth at 30 µM. Provide a value for each of the compounds that follow.
Experiment: Cytotoxicity against human HL60 cells assessed as cell growth inhibition at 30 uM after 48 hrs by MTT assay
Format: functional
Settings: HL-60, 48 h, read-out: GI
Numbers only, in %.

Provide each entry's inhibition of growth at 30 µM from the list below.
1. C[C@H]1[C@@H](OCCOc2ccc(C(=O)/C=C/c3c[nH]c4ccccc34)cc2)O[C@@H]2O[C@@]3(C)CC[C@H]4[C@H](C)CC[C@@H]1[C@@]24OO3
2. Cc1cc(C(=O)/C=C/c2ccc(OCCO[C@H]3O[C@@H]4O[C@@]5(C)CC[C@H]6[C@H](C)CC[C@@H]([C@H]3C)[C@@]46OO5)cc2)ccc1OCCO[C@H]1O[C@@H]2O[C@@]3(C)CC[C@H]4[C@H](C)CC[C@@H]([C@H]1C)[C@@]24OO3

Reply |
[89.1, 68.9]

====

Please respond with reported IC50 for every item in the list.
Experiment: Cytotoxicity against human MIAPaCa2 cells assessed as cell growth inhibition after 48 hrs by MTT assay
Type: functional, cell-based
Conditions: MIA PaCa-2, 48 h
Give bare numbers, in µM.

Give IC50 for each of the items listed below.
1. C[C@H]1[C@@H](O)O[C@@H]2O[C@@]3(C)CC[C@H]4[C@H](C)CC[C@@H]1[C@@]24OO3 [ARTENIMOL]
2. C[C@H]1[C@@H](OCCOc2cccc(C(=O)/C=C/c3ccc(O)cc3)c2)O[C@@H]2O[C@@]3(C)CC[C@H]4[C@H](C)CC[C@@H]1[C@@]24OO3
3. C[C@H]1[C@@H](OCCOc2ccc(/C=C/C(=O)c3ccc(O)cc3)cc2)O[C@@H]2O[C@@]3(C)CC[C@H]4[C@H](C)CC[C@@H]1[C@@]24OO3

Reply |
1. 58
2. 39
3. 22

====

Experiment: Cytotoxicity against human LS180 cells assessed as cell growth inhibition at 30 uM after 48 hrs by MTT assay
Type: functional
Settings: LS180, 48 h, read-out: GI
Give measured inhibition of growth at 30 µM for each item. Keep answers brief.

{"columns": ["lineNotation", "inhibition of growth at 30 µM"],
 "data": [
  ["C[C@H]1[C@@H](OCCOc2ccc(/C=C/C(=O)c3ccc(OCCO[C@H]4O[C@@H]5O[C@@]6(C)CC[C@H]7[C@H](C)CC[C@@H]([C@H]4C)[C@@]57OO6)cc3)cc2)O[C@@H]2O[C@@]3(C)CC[C@H]4[C@H](C)CC[C@@H]1[C@@]24OO3", "45.8%"]
]}

Next molecule, please.
Ask | Could you please provide reported inhibition of growth at 30 µM for COc1ccc(/C=C/C(=O)c2ccc(OCCO[C@H]3O[C@@H]4O[C@@]5(C)CC[C@H]6[C@H](C)CC[C@@H]([C@H]3C)[C@@]46OO5)cc2)c(OC)c1OC ? Thanks!
Reply | 50.8%

====

Assay: Cytotoxicity against human LS180 cells assessed as cell growth inhibition at 0.5 uM after 48 hrs by MTT assay
Type: functional
Conditions: LS180, 48 h, read-out: GI
Kindly supply the reported inhibition of growth at 0.5 µM values for the records listed here.
Numbers only, in %.

{"columns": ["lineNotation", "measuredResult"],
 "data": [
  ["C[C@H]1[C@@H](OCCOc2ccc(/C=C/C(=O)c3ccc(O)cc3)cc2)O[C@@H]2O[C@@]3(C)CC[C@H]4[C@H](C)CC[C@@H]1[C@@]24OO3", 32.2],
  ["COc1cc(/C=C/C(=O)c2ccc(OCCO[C@H]3O[C@@H]4O[C@@]5(C)CC[C@H]6[C@H](C)CC[C@@H]([C@H]3C)[C@@]46OO5)cc2)cc(OC)c1OCCO[C@H]1O[C@@H]2O[C@@]3(C)CC[C@H]4[C@H](C)CC[C@@H]([C@H]1C)[C@@]24OO3", 15.3],
  ["C[C@H]1[C@@H](OCCOc2cccc(C(=O)/C=C/c3ccc(O)cc3)c2)O[C@@H]2O[C@@]3(C)CC[C@H]4[C@H](C)CC[C@@H]1[C@@]24OO3", 21.7]
]}

Now turn to the next molecule.
Ask | Provide inhibition of growth at 0.5 µM value for the following molecule: C[C@H]1[C@@H](OCCOc2ccc(/C=C/C(=O)c3ccco3)cc2)O[C@@H]2O[C@@]3(C)CC[C@H]4[C@H](C)CC[C@@H]1[C@@]24OO3
Reply | 20
